Assay: AUC (0 to t) in Sprague-Dawley rat at 25 mg/kg, po as single dose
Format: ADME, organism-based
Parameters: dose 25 mg/kg, route oral
Conditions: plasma
readoutName: AUC(0-t) (µM·h)
Number only, in µM·h; omit the unit.

AUC(0-t) reading for OCCCC[C@@H]1[C@H]2CCCN3CCC[C@H](CN1Cc1c4ccccc4cc4ccccc14)[C@@H]23 : 10.3

====

Assay: Half life in Sprague-Dawley rat at 25 mg/kg, po as single dose
Assay type: ADME, organism-based
Parameters: dose 25 mg/kg, route oral
Conditions: in vivo
readoutName: half-life (h)
Answer with a number only, understood to be in h.

Consider OCCCC[C@@H]1[C@H]2CCCN3CCC[C@H](CN1Cc1c4ccccc4cc4ccccc14)[C@@H]23 . Its measured half-life is 12.7

Sourced from ChEMBL document CHEMBL3351636
